# System: Nqo1 (NAD(P)H quinone dehydrogenase 1) mRNA, Nrf2 downstream molecule
# test.method.notes: In vivo Nrf2 transcriptional activity measurement (Nqo1 mRNA in organs by qPCR)
# test.conditions: Mus musculus; C57BL/6J mice, Oral, 30 mg/kg, 7 to 8 hours, liver; read-out: Nqo1 mRNA expression level ratio to non-administration group, Liver
Consider the following compounds; for each one, report its fold induction at 30 mg/kg.

Example results:
smi=CO[C@@H]1CN(c2cc(Cl)c(C(=O)N3COc4c(cccc4-c4cc(N5C6CCC5COC6)c(C(=O)O)cc4F)C3)c(Cl)c2)[C@@H]1C meas_value=8.1
smi=COC1(OC)CN(c2cc(Cl)c(C(=O)N3COc4c(cccc4-c4cc(N5C6CCC5COC6)c(C(=O)O)cc4F)C3)c(Cl)c2)C1 meas_value=3.9
smi=C[C@@H]1CN(c2ccc(C(=O)N3COc4c(cccc4-c4cc(N5C6CCC5COC6)c(C(=O)O)cc4F)C3)c(Cl)c2)[C@H](C)CN1C meas_value=4.9
smi=C[C@@H]1CN(C)CCN1c1cc(Cl)c(C(=O)N2COc3c(cccc3-c3cc(N4C5CCC4COC5)c(C(=O)O)cc3F)C2)c(Cl)c1 meas_value=5.2
smi=COCCN1CCN(c2cc(Cl)c(C(=O)N3COc4c(cccc4-c4cc(N5CCOCC5)c(C(=O)O)cc4F)C3)c(Cl)c2)CC1 meas_value=7.4

Next compound, please.
Request the reported fold induction at 30 mg/kg associated with `COC1CC2(C1)CN(c1cc(Cl)c(C(=O)N3COc4c(cccc4-c4cc(N5C6CCC5COC6)c(C(=O)O)cc4F)C3)c(Cl)c1)C2`
6

----------
# Test system: Nqo1 (NAD(P)H quinone dehydrogenase 1) mRNA, Nrf2 downstream molecule
# test.method.notes: In vivo Nrf2 transcriptional activity measurement (Nqo1 mRNA in organs by qPCR)
# test.conditions: Mus musculus, ip; C57BL/6J mice, Intraperitoneal, 10 mg/kg, 7 to 8 hours, liver; read-out: Nqo1 mRNA expression level ratio to non-administration group, Liver
We use 6 as the dividing line for fold induction at 10 mg/kg: on or above the line is Yes, below is No.

smi=CO[C@@H]1CN(c2cc(Cl)c(C(=O)N3COc4c(cccc4-c4cc(N5C6CCC5COC6)c(C(=O)O)cc4F)C3)c(Cl)c2)[C@@H]1C category=Yes
smi=COc1ccc(-c2cc(Cl)c(C(=O)N3COc4c(cccc4-c4cc(N5C6CCC5COC6)c(C(=O)O)cc4F)C3)c(Cl)c2)cn1 category=No

Answer whether fold induction at 10 mg/kg of `O=C(O)c1cc(F)c(-c2cccc3c2OCN(C(=O)c2c(Cl)cc(N4CC5(CC(OC(F)F)C5)C4)cc2Cl)C3)cc1N1C2CCC1COC2` is greater than or equal to 6.
No

Assess whether reported fold induction at 10 mg/kg for `COCCOc1cc(Cl)c(C(=O)N2COc3c(cccc3-c3cc(N4C5CCC4COC5)c(C(=O)O)cc3F)C2)c(Cl)c1` sits at 6 or higher.
Yes

Please tell me: is the compound `COCCN1CCN(c2cc(Cl)c(C(=O)N3COc4c(cccc4-c4cc(N5CCOCC5)c(C(=O)O)cc4F)C3)c(Cl)c2)CC1` at or over 6 in terms of fold induction at 10 mg/kg?
Yes

Item `CC1COC2(CN(c3cc(Cl)c(C(=O)N4COc5c(cccc5-c5cc(N6C7CCC6COC7)c(C(=O)O)cc5F)C4)c(Cl)c3)C2)OC1` with fold induction at 10 mg/kg of 6 or above?
No
